B1: library; numbered along this chain (parent)
chain: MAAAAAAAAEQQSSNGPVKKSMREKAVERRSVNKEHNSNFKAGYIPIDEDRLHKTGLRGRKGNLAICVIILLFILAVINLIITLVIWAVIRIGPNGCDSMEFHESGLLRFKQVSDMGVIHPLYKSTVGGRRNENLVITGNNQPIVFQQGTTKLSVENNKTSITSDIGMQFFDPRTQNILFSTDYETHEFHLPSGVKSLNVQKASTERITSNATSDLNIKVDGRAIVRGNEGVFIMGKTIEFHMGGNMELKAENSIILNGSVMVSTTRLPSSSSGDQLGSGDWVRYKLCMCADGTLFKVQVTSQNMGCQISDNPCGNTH

Variants of: B1
experiment_notes: SGCB cell-surface expression functional score (HA stain, bin4 vs bin1, normalised to synonymous) (log10 ratio); higher = more cell-surface SGCB (functional)
Quick list: SGCB cell-surface expression functional score (log10) per entry.
quantity: SGCB cell-surface expression functional score (log10)

# mut, test_result
data = [
    ("F73L", 0.03),
    ("K19S", 0.21),
    ("I47R", -0.19),
    ("I119D", -0.97),
    ("I70Q", 0.06),
    ("V32C", 0.14),
    ("M262N", 0),
    ("I47D", 0.59),
    ("V220H", 0.43),
    ("S38E", 0.31),
    ("T213N", 0.03),
    ("S260R", 0.87),
    ("S260H", 0.83),
    ("S214W", -1.07),
    ("K237F", 0.86),
    ("V195D", -2.29),
    ("R223H", 0.2),
    ("R174F", -0.97),
    ("S154F", -0.49),
    ("C67E", 0.39),
    ("G222W", 0.49),
    ("V263F", 0.35),
]
